target: wt_RBD-AviHis (SARS-CoV-2 (original Wuhan strain)); test: BLI (Octet), biotinylated RBD on streptavidin biosensors, VHH in solution
Each entry below carries its reported Kd.
measured_property: Kd

[[record]]
binder = "Ma2E06 (VHH, also called Ma02E06) VHH: QVQLVESGGDLVQPRGSLRLSCAASGITLDYYAIGWFRQAPGKEREGVSYISNTNDKTDYADSVKGRFTISRDNAENTVFLQMNSLQPEDTAVYYCATVPGTYYGGRWYYTWHPEAVRYWGKGTQVTVSS"
measured_property = "Kd"
result = "40 pM"

[[record]]
binder = "Re32D03 (VHH) VHH: QVQLVESGGGLVQPGGSLRLSCAISGITLDYYAVGWFLQAPGKEREGISCMRNWDGRTVYAPSVKGRFTISSDNAKKMVYLEMDNLKSEDTGVYYCAAGPLPPGISCRIPTPLGYDDWGQGTQVTVSS"
measured_property = "Kd"
result = "≤ 10 pM"

[[record]]
binder = "Re32E06 (VHH) VHH: QVQLVESGGGLVQPGGSLRLSCETSGITLDYYAIGWFLQAPGKEREGVACMRNWDGSTLYAPSVKGRFTISRDNDKKAVYLEMNSLKSEDTGVYYCAAGPLPPGHSCRIPTPLGYDDWGQGTQVTVSS"
measured_property = "Kd"
result = "≤ 10 pM"

[[record]]
binder = "Re5D06R15 (VHH) VHH: QVQLVESGGGLVQPGGSLRLSCAASGITLDYYAMGWFREAPGKEREGVARIRNSDGSTNYADSVKGRFTMSRDNAKDTYYLQMNSLEPEDTADYYCAYGPLTKYGSSWYWPYEYDYWGQGTQVTVSS"
measured_property = "Kd"
result = "≤ 10 pM"

